Source listed as paper PMC10397247.

This listing pairs binders with measured interaction score.
Target: T1, 4H40-bA
T1 chain: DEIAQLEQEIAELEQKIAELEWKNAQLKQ
Test: two-hybrid library CCNG1;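 note: natural log of median RNA to DNA barcode read ratio; higher means stronger binding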
Reply with just the number.

>>> value_reported("DKNAQLEQENAELKQEIAELKWKIAQLEQ [4H3277-bA]")
-1.08

**Q:** Need interaction score, item DKIAQLKQENAELEQEIAELEWENAQLKQ [4H2692-bA]
**A:** -0.113

**Q:** What do you get for DEIAQLEQKIAELEQKNAELKWKNAQLEQ [4H319-bA] ?
**A:** -0.44

**Q:** Lookup DKIAQLKQKIAELEQENAELEWKNAQLEQ [4H2839-bA]
**A:** 1.35

**Q:** How about this binder: DKIAQLKQEIAELEQENAELKWENAQLKQ [4H2588-bA]
**A:** -1.21

**Q:** Subsequent entry: DEIAQLEQKIAELKQENAELKWENAQLKQ [4H348-bA]
**A:** -0.298

**Q:** Now consider DKIAQLEQKNAELEQKIAELKWEIAQLEQ [4H2473-bA] and answer again.
**A:** -0.325

**Q:** Same thing, different binder: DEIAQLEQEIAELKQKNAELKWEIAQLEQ [4H121-bA]
**A:** -0.579

**Q:** Try this binder next: DKIAQLEQKNAELKQEIAELEWKNAQLEQ [4H2503-bA]
**A:** -0.475
